Source listed as PubChem BioAssay AID1159580.

# ASSAY_NAME: chemical genetic growth profiling, strain panel (AID 1159580);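 also: tested at 20 µM; growth read once vehicle control cultures reached saturation at 30 °C; 1 = growth at the plate median or of vehicle wells; lower values mean less growth of the strain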
# CONDITION_PARAMETERS: S. cerevisiae deletion strains, growth OD, locus YHR079C, strain IRE1 (second series), hits give low values
Hit rate of the full screen: of about 5,500 compounds, about 2,000 (36%) were called active. Another 18% or so got no clear call; they are omitted. The list shows a part of the results.
REPORTED_METRIC: normalized growth
Give a plain numeric answer without units written out.

Problem: Quick check: normalized growth of "CCCn1c(=O)c2[nH]c(C3CCCC3)nc2n(CCC)c1=O" ?
Result: 0.975

Problem: Quick check: normalized growth of C[C@]12CCC3C(CC[C@H]4C[C@H](O)CC[C@]34C)C1CC[C@@H]2O (stereo partly specified) ?
Result: 1.01

Problem: Quick check: normalized growth of "NC1(C(=O)O)CCCC1" ?
Result: 0.996

Problem: Quick check: normalized growth of O=c1cccc2n1CC1CC2CN2CCCC[C@@H]12 (stereo partly specified) ?
Result: 0.986

Problem: Quick check: normalized growth of CCC(=O)OC1[C@@H]2CC3=C4CC(=O)O[C@@H](c5ccoc5)[C@]4(C)CCC3[C@@](C)(C2=O)[C@@H](CC(=O)OC)C1(C)C (stereo partly specified) ?
Result: 1.01

Problem: Quick check: normalized growth of "O=C(O)COc1ccc(Cl)cc1Cl" ?
Result: 1.03

----------
# ASSAY_NAME: chemical genetic growth profiling, strain panel (AID 1159580)
# CONDITION_PARAMETERS: S. cerevisiae deletion strains, growth OD, locus YCL016C, strain dcc1, hits give low values
Among all 5,500 compounds or so, about 2,000 (36%) were called active. Roughly 18% stayed inconclusive and do not appear here. Some of the results follow.
REPORTED_METRIC: normalized growth
Give a plain numeric answer without units written out.

Problem: Quick check: normalized growth of O=c1cccc2n1CC1CC2CN2CCCC[C@@H]12 (stereo partly specified) ?
Result: 0.976

Problem: Quick check: normalized growth of "C[C@H]1C[C@@H](O)[C@]2(O)[C@@]13CC(=O)OC[C@@]2(C)[C@](C)(O)C(=O)C3" ?
Result: 1.02

Problem: Quick check: normalized growth of "O=NN(CCCl)C(=O)NCCCl" ?
Result: 0.847

Problem: Quick check: normalized growth of CCC(=O)OC1[C@@H]2CC3=C4CC(=O)O[C@@H](c5ccoc5)[C@]4(C)CCC3[C@@](C)(C2=O)[C@@H](CC(=O)OC)C1(C)C (stereo partly specified) ?
Result: 1.01

Problem: Quick check: normalized growth of "Fc1ccc([C@@H]2CCNC[C@H]2COc2ccc3c(c2)OCO3)cc1" ?
Result: 0.99

Problem: Quick check: normalized growth of CC1CCC(NC(=O)N(CCCl)N=O)CC1 (stereo unspecified) ?
Result: 0.703

Problem: Quick check: normalized growth of CC1(C)N([O-])[N+](=O)C1(C)Br (stereo unspecified) ?
Result: 0.99

Problem: Quick check: normalized growth of "NC1(C(=O)O)CCCC1" ?
Result: 1.01

Problem: Quick check: normalized growth of "CCCNC(=O)NS(=O)(=O)c1ccc(Cl)cc1" ?
Result: 1.01

Problem: Quick check: normalized growth of COc1ccnc(CS(=O)c2nc3ccc(OC(F)F)cc3[nH]2)c1OC (stereo unspecified) ?
Result: 1.03

Problem: Quick check: normalized growth of "COP(=S)(OC)Oc1ccc([N+](=O)[O-])cc1" ?
Result: 0.99

----------
# ASSAY_NAME: chemical genetic growth profiling, strain panel (AID 1159580)
# CONDITION_PARAMETERS: S. cerevisiae deletion strains, growth OD, locus YBR023C, strain chs3, hits give low values
Out of some 5,500 compounds screened, about 2,000 (36%) were called active. Not shown: some 18% with an inconclusive outcome. This is one part of the list.
Just a reminder that ties go to not met: only normalized growth strictly below 1 counts as met.

Problem: Is it true that normalized growth reported for CC1[C@H](C)OC(=O)CC(O)CC(O)CC(O)CCC(O)C(O)C[C@]2(O)CC(O)C(C(=O)O)C(CC(OC3O[C@H](C)[C@@H](O)[C@H](N)[C@@H]3O)/C=C/C=C/C=C/C=C/CC/C=C/C=C/[C@H](C)[C@H]1O)O2 (stereo not given in full) is less than 1?
Result: met

Problem: Is it true that normalized growth reported for COC1C=CC23c4cc5c(cc4CN(CC2O)[C@@H]3C1)OCO5 (stereo not given in full) is less than 1?
Result: met

Problem: Is it true that normalized growth reported for "Cc1cc(CC(=O)O)n(C)c1C(=O)c1ccc(Cl)cc1" is less than 1?
Result: not met

----------
# ASSAY_NAME: chemical genetic growth profiling, strain panel (AID 1159580);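 also: tested at 20 µM; growth read once vehicle control cultures reached saturation at 30 °C; 1 = growth at the plate median or of vehicle wells; lower values mean less growth of the strain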
# CONDITION_PARAMETERS: S. cerevisiae deletion strains, growth OD, locus YDR001C, strain nth1, hits give low values
The campaign covered roughly 5,500 compounds. About 2,000 (36%) were called active. About 18% were inconclusive and are not listed. The list shows a part of the results.
REPORTED_METRIC: normalized growth
Give a plain numeric answer without units written out.

Problem: Quick check: normalized growth of "O=C(O)[C@@H](S)[C@@H](S)C(=O)O" ?
Result: 0.971

Problem: Quick check: normalized growth of CC(=O)O[C@@H]1CC2C(C)(C)C(=O)C3OC3[C@]2(C)C2CC[C@@]3(C)[C@H](c4ccoc4)OC(=O)C4OC43[C@@]21C (some centres undefined) ?
Result: 0.986

Problem: Quick check: normalized growth of CC1(C)C(=O)[C@@H]2O[C@@H]2[C@@]2(C)C1C[C@@H](O)[C@]1(C)C2CC[C@@]2(C)[C@H](c3ccoc3)OC(=O)C3OC321 (some centres undefined) ?
Result: 1

Problem: Quick check: normalized growth of CC(=O)O[C@@H]1CC2C(C)(C)[C@H](O)C=C[C@]2(C)C2CC[C@@]3(C)[C@H](c4ccoc4)OC(=O)C4OC43[C@@]21C (some centres undefined) ?
Result: 1.01

----------
# ASSAY_NAME: chemical genetic growth profiling, strain panel (AID 1159580);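 also: tested at 20 µM; growth read once vehicle control cultures reached saturation at 30 °C; 1 = growth at the plate median or of vehicle wells; lower values mean less growth of the strain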
# CONDITION_PARAMETERS: S. cerevisiae deletion strains, growth OD, locus YDL040C, strain nat1, hits give low values
The campaign covered roughly 5,500 compounds. About 2,000 (36%) were called active. Roughly 18% stayed inconclusive and do not appear here. This is one part of the list.
REPORTED_METRIC: normalized growth
Give a plain numeric answer without units written out.

Problem: Quick check: normalized growth of CC(=O)O[C@@H]1CC2C(C)(C)[C@@H](O)CC[C@]2(C)C2CC[C@@]3(C)[C@H](c4ccoc4)OC(=O)[C@H]4O[C@]43[C@@]21C (stereo partly specified) ?
Result: 0.986

Problem: Quick check: normalized growth of "NCCCNCCSP(=O)(O)O" ?
Result: 0.987

Problem: Quick check: normalized growth of CC(=O)O[C@H]1C[C@@H](OC(C)=O)C(C)(C)C2C[C@@H](OC(C)=O)[C@]3(C)C(CC[C@@]4(C)[C@H](c5ccoc5)OC(=O)[C@H]5O[C@]543)[C@]21C (stereo partly specified) ?
Result: 0.999

Problem: Quick check: normalized growth of "Cc1nnc(NS(=O)(=O)c2ccc(N)cc2)s1" ?
Result: 1.01

Problem: Quick check: normalized growth of Clc1ccc(C(c2ccccc2Cl)C(Cl)Cl)cc1 (stereo unspecified) ?
Result: 0.989

Problem: Quick check: normalized growth of NC(=O)NC1NC(=O)NC1=O (stereo unspecified) ?
Result: 0.999

----------
# ASSAY_NAME: chemical genetic growth profiling, strain panel (AID 1159580);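 also: tested at 20 µM; growth read once vehicle control cultures reached saturation at 30 °C; 1 = growth at the plate median or of vehicle wells; lower values mean less growth of the strain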
# CONDITION_PARAMETERS: S. cerevisiae deletion strains, growth OD, locus YHR030C, strain SLT2, hits give low values
Out of some 5,500 compounds screened, about 2,000 (36%) were called active. Inconclusive results (about 18%) are left out. Some of the results follow.
REPORTED_METRIC: normalized growth
Give a plain numeric answer without units written out.

Problem: Quick check: normalized growth of "CC(=O)c1ccc(N2C(=O)CSCC2=O)cc1" ?
Result: 1.02

Problem: Quick check: normalized growth of "NCCCNCCSP(=O)(O)O" ?
Result: 0.993

Problem: Quick check: normalized growth of "CC[C@@H]1OC(=O)C[C@@H](O)[C@H](C)[C@@H](O[C@@H]2O[C@H](C)[C@@H](O)[C@H](N(C)C)[C@H]2O)[C@@H](CCN2C[C@H](C)C[C@H](C)C2)C[C@@H](C)C(=O)/C=C/C(C)=C\[C@@H]1CO[C@@H]1O[C@H](C)[C@@H](O)[C@@H](OC)[C@H]1OC" ?
Result: 0.978

Problem: Quick check: normalized growth of "CCOC(=O)c1cnn(-c2ccc(N)cc2)c1C(F)(F)F" ?
Result: 0.378

Problem: Quick check: normalized growth of "CNC(=O)Sc1c(-c2ccc(Cl)cc2)nn(C(=O)NC)c1SC" ?
Result: 0.335

Problem: Quick check: normalized growth of "CC(=O)OC/C=C(\C)CC/C=C(\C)CC/C=C(\C)CC/C=C(\C)CC/C=C(\C)CC/C=C(\C)CC/C=C(\C)CC/C=C(\C)CCC=C(C)C" ?
Result: 1.04

Problem: Quick check: normalized growth of "CC1=CC(=O)N(c2ccc(OC(F)(F)F)cc2)C1=O" ?
Result: 0.283

Problem: Quick check: normalized growth of "COc1ccc(-c2cc(=O)c3c(OC)cc(OC)cc3o2)cc1" ?
Result: 0.997

Problem: Quick check: normalized growth of "NC1(C(=O)O)CCCC1" ?
Result: 1.01

Problem: Quick check: normalized growth of "CN(C)c1ccc(/C=C/c2ccc3ccccc3[n+]2C)cc1" ?
Result: 0.532

Problem: Quick check: normalized growth of "COP(=S)(OC)Oc1ccc(Sc2ccc(OP(=S)(OC)OC)cc2)cc1" ?
Result: 0.973

Problem: Quick check: normalized growth of C[C@]12CCC3c4ccc(OC(=O)CCC(=O)O)cc4CCC3C1CCC2=O (stereo partly specified) ?
Result: 1

Problem: Quick check: normalized growth of "Cc1ccc(-c2nc(NS(=O)(=O)c3cccc4nonc34)sc2C)cc1Cl" ?
Result: 1.06

Problem: Quick check: normalized growth of "CC1=CC(=O)N(c2ccc(F)c(Cl)c2)C1=O" ?
Result: 0.173

Problem: Quick check: normalized growth of "S=C1NC2(CCCCC2)NN1c1ccccc1" ?
Result: 0.1

Problem: Quick check: normalized growth of "O=C1NN(c2ccccc2)C(=S)Nc2ccccc21" ?
Result: 0.986

Problem: Quick check: normalized growth of COC1=CC(=O)OC(CCc2ccc(OC)c(OC)c2)C1 (stereo unspecified) ?
Result: 1.01

Problem: Quick check: normalized growth of COc1cc2c(cc1OC)C1(O)C(=O)c3ccc(O)c(C(=O)O)c3OC1CO2 (stereo unspecified) ?
Result: 0.99

Problem: Quick check: normalized growth of "O/N=C(/CNC(c1ccccc1)(c1ccccc1)c1ccccc1)c1ccccc1" ?
Result: 0.594

Problem: Quick check: normalized growth of "Cc1cc(Cl)ccc1Oc1ccc(N)cn1" ?
Result: 0.486

Problem: Quick check: normalized growth of "COc1ccc(Nc2nc(NC(=O)Nc3ccc(Cl)cc3)n[nH]2)cc1" ?
Result: 0.887
